Where a SMILES comes first, the peptide text is derived from it.
Each record gets a class by logP: low-valued: < -0.4; mid-valued: ≥ -0.4 and < 3; high-valued: ≥ 3

See these solved cases before continuing.
# molecule, groupLabel
measured = [
    ("CC(C)CC(N)C(=O)NC(CC(C)C)C(=O)NCC(=O)NC(Cc1ccccc1)C(=O)O (stereo not drawn) (H-LLGF-OH; configuration not given here)", "low-valued"),
    ("CSCCC(NC(=O)C(N)Cc1ccccc1)C(=O)O (stereo not drawn) (H-Phe-Met-OH; configuration not given here)", "low-valued"),
    ("O=c1cc(-c2ccccc2)oc2c(Cl)cc(Cl)cc12", "high-valued"),
    ("CN1CCN(CCn2nc3ccccc3n2)CC1", "mid-valued"),
]

-- ask Just checking, what class would you give CCCCCN(CCCCC)CC(O)c1ccccc1 (stereo not drawn) here?
-- reply mid-valued

-- ask Just checking, what class would you give COC(=O)NC(=O)Cn1c(C)nc2ccccc2c1=O here?
-- reply mid-valued

* * *

Where a SMILES comes first, the peptide text is derived from it.
Each item that follows carries a reported logP.
Please give only the number in your answer, with no unit.

-- ask Identify the reported logP for the following entry. CCOC(=O)C1=C(C)NC(C)=C(C(=O)OC)C1c1ccccc1OCOC (centres undefined)
-- reply 3.78

-- ask Identify the reported logP for the following entry. CN(C/C=C/C#CC(C)(C)C)Cc1cccc2ccccc12
-- reply 6

-- ask Identify the reported logP for the following entry. O=C(Cn1cnc([N+](=O)[O-])n1)NCCCO
-- reply -1.27

-- ask Identify the reported logP for the following entry. CC(C)CC(N)C(=O)NC(CC(C)C)C(=O)NC(C(=O)NC(Cc1ccccc1)C(=O)O)C(C)C (centres undefined) (H-LLVF-OH; configuration not given here)
-- reply -0.25

-- ask Identify the reported logP for the following entry. COC(=O)c1c(N2CCOCC2)c(-c2ccc(Cl)cc2)cn1C(=O)N1CCOCC1
-- reply 3.1

-- ask Identify the reported logP for the following entry. CCCCCOc1cccc(NC(=O)OCCN2CCCCC2)c1
-- reply 5.5

-- ask Identify the reported logP for the following entry. CC1CC2C3CCC4=CC(=O)C=CC4(C)C3(F)C(O)CC2(C)C1(O)C(=O)COC(=O)CC(C)(C)C (centres undefined)
-- reply 4.3

-- ask Identify the reported logP for the following entry. Clc1ccc2c(oc3c(Cl)cc(Cl)c(Cl)c32)c1Cl
-- reply 6.27

-- ask Identify the reported logP for the following entry. CN(C)CCCC(c1ccccc1)c1ccccc1
-- reply 4.91

-- ask Identify the reported logP for the following entry. Cc1cc2c(o1)c(C)cc1ccc(=O)oc12
-- reply 2.85

-- ask Identify the reported logP for the following entry. CCCCCCCNc1ncnc2nc[nH]c12
-- reply 3.71

-- ask Identify the reported logP for the following entry. O=C(CC1CCc2cc(Br)cc3[nH]c(=O)c(=O)n1c23)Nc1ccccc1 (centres undefined)
-- reply 2.78

-- ask Identify the reported logP for the following entry. CCCCCC(O)C=CC1C(O)CC(O)C1CC=CCCCC(=O)OCc1ccccc1 (centres undefined)
-- reply 4.11

* * *

Where a SMILES comes first, the peptide text is derived from it.
endpointLabel: logP
Please give only the number in your answer, with no unit.

Some molecules with known logP results, for comparison:
# molecule, valueObserved
data = [
    ("COc1cccc2c1OP(=O)(OCC1C=CC(n3cc(C)c(=O)[nH]c3=O)O1)OC2 (configuration not stated)", 0.15),
    ("Clc1nc(-c2ccccc2)nc2ccccc12", 4.47),
    ("CC(C)CC(NC(=O)C(Cc1c[nH]c2ccccc12)NC(=O)C(N)Cc1c[nH]c2ccccc12)C(=O)O (stereo not drawn) (H-Trp-Trp-Leu-OH; configuration not given here)", 0.36),
    ("Cc1nccc2c3ccccc3n(C)c12", 3.01),
    ("CC(=O)OCc1ccccn1", 0.39),
    ("Fc1cccc(CNc2ncnc3nc[nH]c23)c1", 2.31),
    ("CC=C(C)C1(C)CC(O)=C(C(CCC)=NOCC)C(=O)O1 (configuration not stated)", 3.4),
    ("CCn1ccnc1CC1COc2ccccc2O1 (configuration not stated)", 2.31),
    ("CC1=C(C#N)C(C)(C)C(C#N)=C(C)N1", 2.47),
    ("CC(=O)NC(CCCCNC(=O)N(CCCl)N=O)C(=O)NCc1ccccc1 (configuration not stated)", 1.54),
]

-- ask Identify the reported logP for the following entry. Clc1cc(Br)cc(Cl)c1N=C1NCCN1
-- reply 2.46

-- ask Identify the reported logP for the following entry. C=CC(=O)OCC(COC(=O)C=C)(COC(=O)C=C)COC(=O)C=C
-- reply 2.11

-- ask Identify the reported logP for the following entry. CCN(CC)CCC(=O)Nc1ccc(N)cc1
-- reply 0.8

-- ask Identify the reported logP for the following entry. COC(=O)c1c(N2CCOCC2)c(-c2ccc(Cl)cc2)cn1C(C)=O
-- reply 3.5

-- ask Identify the reported logP for the following entry. Cc1cc(=O)oc2c1c(C)cc1occ(C)c12
-- reply 3.04

-- ask Identify the reported logP for the following entry. CN(C)CCOc1c(Cl)cccc1Cl
-- reply 2.57

-- ask Identify the reported logP for the following entry. Cc1csc(Cl)c1NC1=NCCN1
-- reply 1.18

-- ask Identify the reported logP for the following entry. CCCOC(=O)c1cnc2n(c1=O)C(C)CCC2 (configuration not stated)
-- reply 1.14

-- ask Identify the reported logP for the following entry. COC(=O)Cn1c(C)nc2ccccc2c1=O
-- reply 1.46

Reference source: the OPERA property sets (Mansouri et al. 2018)
